# Tested on: Toxoplasma gondii WT
# Construct: RH
# ASSAY COMMENT: microbe, parasite or virus in culture
# Set-up: species or system human foreskin fibroblasts (HFF); T. gondii RH NLuc tachyzoite growth in HFF monolayer, Nano-Glo luciferase luminescence
# MEASUREMENT CONDITIONS: Fibroblast, 48 h, read-out: EC50 Treated-PYR (nM)
ENDPOINT LABEL: EC50
Don't forget the unit after the number, please.

### Prompt # query: EC50 of entry CCc1nc(N)nc(N)c1-c1ccc(Cl)cc1 [PYR, pyrimethamine]
### Response 174 nM

====

# Test system: Toxoplasma gondii WT
# Construct: RH
# ASSAY COMMENT: microbe, parasite or virus in culture
# Design: species or system human foreskin fibroblasts (HFF); T. gondii RH NLuc tachyzoite growth in HFF monolayer, Nano-Glo luciferase luminescence
# MEASUREMENT CONDITIONS: Fibroblast, 48 h, read-out: EC50 Treated-L95 (nM)
ENDPOINT LABEL: EC50 (nM)
Numbers only, in nM.

### Prompt # query: EC50 of entry `Cc1cc(N2CC[C@@](C#N)(C3CC3)C2=O)cc(NC(=O)Cc2ccccc2)n1`
### Response 277
